Field: Population Normal (%). Provide a value for each of the compounds that follow.
Tested on: Fibroblast
Assay: Multiplex assay against human fibroblast
Assay type: toxicity, cell-based
Conditions: 12 h, 1 µM, compound concentration 1 uM, number of replicates 2
Write the quantity with the unit trailing the number.

# compound, value
records = [
    ("CC(=O)N(CCN(C)C)c1ccc(N/C(=C2\\C(=O)Nc3cc(Cl)ccc32)c2ccccc2)cn1", "100%"),
    ("CN(C)CCCN1c2ccccc2Sc2ccc(Cl)cc21.Cl [CHLORPROMAZINE HYDROCHLORIDE]", "100%"),
    ("CCc1ncnc(N2CCN(C(C)=O)CC2)c1C#Cc1ccc(N)nc1.Cl.Cl", "99%"),
    ("Cn1cc(-c2ccc(N(C(=O)NCc3ccccc3)[C@H]3CC[C@H](Nc4ccc(C#N)cn4)CC3)cc2)ccc1=O", "100%"),
    ("O=S(=O)(c1ccccc1)N(CC(F)(F)F)c1ccc(C(O)(C(F)(F)F)C(F)(F)F)cc1 [T091317]", "100%"),
]

Record Population Normal (%) for all entries; do not skip any.
1. CN1CCN(C(=O)Cc2ccc(N/C(=C3\C(=O)Nc4cc(Cl)ccc43)c3ccccc3)cc2)CC1
2. Cn1c(Nc2c(Cl)cccc2Cl)nc2ccc3nc[nH]c(=O)c3c21

Response given:
1. 100%
2. 100%

Challenge: Answer with the recorded Population Normal (%) of COC(=O)c1ccc2c(c1)NC(=O)/C2=C(\Nc1ccc(-c2nccn2C)cc1)c1ccccc1 only.
Response given: 99%
